# LD50 listing for each entry below
# assay: Acute toxicity (LD50)
# run.conditions: in vivo; mouse, oral route; read-out: LD50 / toxicity, oral
# number only, unit mg/kg dropped from output

CCN(CC)CCn1cc(CC(C)=O)c2ccccc21 | 400

Note: attention shifts to another entry.
Recorded result, CC(=O)ON=C(C)Cc1cn(CCN(C)C)c2ccccc12 , LD50: 200

###

LD50 by entry:
# assay: Acute toxicity (LD50)
# run.conditions: in vivo, sc; mouse, sub-cutaneous route; read-out: LD50 / toxicity, sub-cutaneous
A number alone suffices; assume mg/kg.

CC(=O)ON=C(C)Cc1cn(CCN(C)C)c2ccccc12 | 400

In plain terms, CC(O)Cc1cn(CCN(C)C)c2ccccc12 (centres unmarked) has a documented LD50 of 800

Summary for this compound, CCN(CC)CCn1cc(CC(C)=O)c2ccccc21 : LD50 is 200

###

# Test system: visceral pain in the mouse
# assay: Analgesic effect, Koster and Anderson test (visceral pain induced by intraperitoneal acetic acid)
# Type: in vivo
# run.conditions: oral, 30 minutes before acetic acid injection, read-out: ED50 (50% effective dose reducing by one half the number of symptoms of pain)
measured.property: ED50 (mg/kg)
Hi! Could you send only the number? It should be in mg/kg, unit omitted.

# annotated cases, reported ED50 shown
CC(Cc1cn(CCN(C)C)c2ccccc12)=NO [compound 5354] | 3
CC(O)Cc1cn(CCN(C)C)c2ccccc12 (stereo not shown) [compound 5607] | 0.75
CC(=O)Cc1cn(CCN(C)C)c2ccccc12 [compound 5353] | 1.5

Entry CCN(CC)CCn1cc(CC(C)O)c2ccccc21 (stereo not shown) [compound 5938] , ED50 reported as 1.5

###

# assay: Acute toxicity (LD50)
# run.conditions: in vivo; mouse, oral route; read-out: LD50 / toxicity, oral
measured.property: LD50

// known answers, use as guide
CCC(=O)ON=C(C)Cc1cn(CCN(C)C)c2ccccc12 | > 400 mg/kg
CC(O)Cc1cn(CCN(C)C)c2ccccc12 (stereo not drawn) | > 800 mg/kg

Pending molecule:
Sure, the documented LD50 for COc1ccc(-n2cc(CC(C)O)c3ccccc32)cc1 (stereo not drawn) is > 400 mg/kg

###

# Tested on: visceral pain in the mouse
# assay: Analgesic effect, Koster and Anderson test (visceral pain induced by intraperitoneal acetic acid)
# Format: in vivo
# run.conditions: oral, 30 minutes before acetic acid injection, read-out: ED50 (50% effective dose reducing by one half the number of symptoms of pain)
measured.property: ED50

# count of solved cases: 2
CCC(=O)ON=C(C)Cc1cn(CCN(C)C)c2ccccc12 | 0.75 to 1.5 mg/kg
CC(Cc1cn(CCN(C)C)c2ccccc12)=NOCCN(C)C | 6.25 to 12.5 mg/kg

Please look at the following molecule next.
Considering CC(=O)ON=C(C)Cc1cn(CCN(C)C)c2ccccc12 , its ED50 with visceral pain in the mouse was recorded as 0.75 to 1.5 mg/kg
